organism: Homo sapiens; assay: Drug absorption in buccal cavity in human at pH 7.50 after 5 mins by UV spectrometry; type: ADME, organism-based; conditions: in vivo, other, pH 7.5, 5 min
Readings of Drug absorption for the listed compounds

{"columns": ["compound", "Drug absorption"],
 "data": [
  ["CN1CC[C@H]2CCC[C@@H](NS(=O)(=O)c3ccccc3)[C@@H]2C1 (mixture of isomers)", "20.4%"],
  ["COc1ccc(C(=O)N[C@@H]2CCC[C@@H]3CCN(C)C[C@@H]32)cc1 (mixture of isomers)", "7%"],
  ["COc1ccc(C(=O)N[C@@H]2CCC[C@@H]3CCN(C)C[C@H]32)cc1 (mixture of isomers)", "9%"],
  ["COc1cc(C(=O)N[C@@H]2CCC[C@@H]3CCN(C)C[C@@H]32)cc(OC)c1OC (mixture of isomers)", "14.2%"],
  ["CN1CC[C@H]2CCC[C@@H](NC(=O)c3ccccc3)[C@H]2C1 (mixture of isomers)", "16%"],
  ["COc1cc(C(=O)O[C@@H]2CCC[C@@H]3CCN(C)C[C@@H]32)cc(OC)c1OC (mixture of isomers)", "38.2%"],
  ["CN1CC[C@H]2CCC[C@@H](NC(=O)c3ccc(Cl)c(Cl)c3)[C@H]2C1 (mixture of isomers)", "25.1%"],
  ["COc1cc(C(=O)N[C@@H]2CCC[C@@H]3CCN(C)C[C@H]32)cc(OC)c1OC (mixture of isomers)", "18.1%"],
  ["CN1CC[C@H]2CCC[C@@H](NC(=O)c3ccc(Cl)cc3)[C@@H]2C1 (mixture of isomers)", "12.4%"],
  ["CN1CC[C@H]2CCC[C@@H](OC(=O)c3ccccc3)[C@H]2C1 (relative stereo)", "46%"],
  ["COc1cc(C(=O)O[C@@H]2CCC[C@@H]3CCN(C)C[C@H]32)cc(OC)c1OC (mixture of isomers)", "19.7%"],
  ["CN1CC[C@H]2CCC[C@@H](NC(=O)c3ccccc3)[C@@H]2C1 (mixture of isomers)", "15.9%"],
  ["COc1ccc(C(=O)N[C@@H]2CCC[C@@H]3CCN(C)C[C@H]32)cc1OC (mixture of isomers)", "18.9%"],
  ["CN1CC[C@H]2CCC[C@@H](OC(=O)c3ccc(Cl)cc3)[C@@H]2C1 (mixture of isomers)", "42.7%"],
  ["COc1ccc(C(=O)N[C@@H]2CCC[C@@H]3CCN(C)C[C@@H]32)cc1OC (mixture of isomers)", "10.4%"]
]}
